ASSAYED_SYSTEM: Ubiquitin carboxyl-terminal hydrolase 28 (Homo sapiens) (UniProt Q96RU2)
Sequence (Q96RU2 whole entry, looked up): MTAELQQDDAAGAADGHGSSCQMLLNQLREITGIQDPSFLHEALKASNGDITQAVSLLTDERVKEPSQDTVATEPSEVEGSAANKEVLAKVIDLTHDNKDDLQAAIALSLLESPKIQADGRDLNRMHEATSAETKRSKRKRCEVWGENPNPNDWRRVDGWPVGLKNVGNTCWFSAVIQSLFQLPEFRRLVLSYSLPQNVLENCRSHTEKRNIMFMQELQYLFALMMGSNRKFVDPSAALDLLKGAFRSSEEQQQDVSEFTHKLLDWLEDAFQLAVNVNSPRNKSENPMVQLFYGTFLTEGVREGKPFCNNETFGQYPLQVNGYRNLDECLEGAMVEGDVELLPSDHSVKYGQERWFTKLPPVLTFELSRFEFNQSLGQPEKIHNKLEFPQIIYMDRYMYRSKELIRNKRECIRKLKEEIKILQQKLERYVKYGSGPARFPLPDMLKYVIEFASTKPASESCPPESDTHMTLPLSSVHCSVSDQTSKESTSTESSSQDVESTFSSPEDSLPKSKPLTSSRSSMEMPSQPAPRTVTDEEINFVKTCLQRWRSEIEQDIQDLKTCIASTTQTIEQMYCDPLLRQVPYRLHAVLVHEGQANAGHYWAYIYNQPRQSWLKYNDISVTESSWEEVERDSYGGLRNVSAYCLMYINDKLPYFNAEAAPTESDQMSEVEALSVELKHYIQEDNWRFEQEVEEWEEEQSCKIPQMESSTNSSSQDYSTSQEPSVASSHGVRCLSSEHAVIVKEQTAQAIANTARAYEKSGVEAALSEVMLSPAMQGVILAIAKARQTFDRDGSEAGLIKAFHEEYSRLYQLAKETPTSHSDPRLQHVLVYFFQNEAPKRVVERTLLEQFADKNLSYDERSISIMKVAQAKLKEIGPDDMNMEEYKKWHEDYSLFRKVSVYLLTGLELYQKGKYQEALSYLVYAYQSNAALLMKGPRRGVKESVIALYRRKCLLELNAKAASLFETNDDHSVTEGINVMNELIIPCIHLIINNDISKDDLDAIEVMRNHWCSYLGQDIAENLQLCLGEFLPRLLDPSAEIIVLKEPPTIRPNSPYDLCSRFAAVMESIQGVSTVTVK
METHOD: Concentration-response biochemical assay confirming initial hits as inhibitors of ubiquitin-specific protease 28 (AID 1645866)
MEASUREMENT_CONDITIONS: purified USP28, ubiquitin-rhodamine fluorescence, 30 min
Active and inactive are the calls of the source.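 The calls were made as follows: active = in confirmatory dose-response testing, peak deubiquitinase inhibition of 30% or more; inactive = the rest.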
Form entry, call: pick from true = active, false = inactive

Some entries whose results are on file:
COMPOUND	CATEGORY
COc1ccc(NC(=O)C2CC(=O)Nc3c(-c4ccc(Cl)cc4)cnn32)c(OC)c1 (stereo unspecified)	true
Cc1noc(-c2cc(=O)n(CC(=O)NCc3ccccc3F)c3ccccc23)n1	true
COc1ccc(-n2nnc(C(=O)Nc3ccccc3)c2N)cc1	false
CSc1nccc(-c2ccc(F)cc2)c1C#N	true
CNS(=O)(=O)c1ccc(CNC(=O)c2cc(-c3ccc(C)cc3)no2)cc1	true
CCC(=O)OCc1cnc(C)c2oc(=O)c(-c3nc(-c4ccccc4)no3)cc12	false

Field: outcome | Entry: "N#Cc1ccc(-c2ccc(OCC(=O)Nc3ccc4c(c3)OCO4)cc2)cc1" true

Short answer needed: outcome of this test for "CC(=O)c1ccc(NC(=O)CSc2nc(-c3ccccc3)nc3c2COC(C)(C)C3)cc1" ? true

Look up the recorded call for "CCN(C(=O)c1cc2c(s1)-c1ccccc1OC2)c1ccccc1F" in this test. true

Tell me the assay call for "CN(C)c1cccc(C(=O)Nc2cc(-c3cccnc3)no2)c1" please. true

GET /call?item= O=C(O)c1ccc(C2Cc3c([nH]c(=O)[nH]c3=O)O2)cc1 (stereo unspecified) returns the recorded outcome of this test. true

====

ASSAYED_SYSTEM: UniProtKB Q96RU2
METHOD: Concentration-response biochemical assay confirming initial hits as inhibitors of ubiquitin-specific protease 28 (AID 1645866)
MEASUREMENT_CONDITIONS: purified USP28, ubiquitin-rhodamine fluorescence, 30 min
Calls of active or inactive are those of the source.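 How the source made its calls: active means in confirmatory dose-response testing, peak deubiquitinase inhibition of 30% or more; inactive means the rest.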
Write down one outcome, taken from Y = active, N = inactive

COMPOUND	CATEGORY
O=C(Nc1cccc(Cl)c1)c1ncn2c1CNS(=O)(=O)c1ccccc1-2	Y
CSc1ccc(CNC(=O)CC2CCN(S(=O)(=O)c3ccc(C)cc3)CC2)cc1	Y
COc1ccc(Cn2cnc3c([nH]c4ccc(Br)cc43)c2=O)cc1	Y
O=C(COc1nsnc1N1CCOCC1)Nc1ccc(F)c(F)c1	N
O=C(Nc1ccc(-c2nnc3n2CCCCC3)cc1)c1ccc2c(c1)OCO2	Y

Then there is this compound:
// outcome(item) with item = "COc1cccc(N2CCN(C(=O)C3CCN(c4nc(NC(C)=O)ns4)CC3)CC2)c1" N

====

ASSAYED_SYSTEM: Ubiquitin carboxyl-terminal hydrolase 28 (Homo sapiens) (UniProt Q96RU2)
METHOD: Concentration-response biochemical assay confirming initial hits as inhibitors of ubiquitin-specific protease 28 (AID 1645866)
MEASUREMENT_CONDITIONS: purified USP28, ubiquitin-rhodamine fluorescence, 30 min
Calls of active or inactive are those of the source.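 How the source made its calls: active means in confirmatory dose-response testing, peak deubiquitinase inhibition of 30% or more; inactive means the rest.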
Use one of these outcomes when replying: active, inactive

Previously resolved entries follow.
MOLECULE	CATEGORY
O=C(OCc1cccc(Cl)c1)c1ccc2ccccc2n1	active
CCc1ccccc1NC(=O)COc1ccccc1-c1nnc(-c2ccccc2)o1	active
Cc1ccc(C)c(NS(=O)(=O)c2cc(-c3cnc(C4CC4)o3)ccc2C)c1	active
COc1ccc(C(=O)Nc2ccc(S(=O)(=O)N3CCCCC3)cc2)cc1	active

GET /call?item= "CN(CCCNC(=O)c1cccc2c1SCCC2=O)c1ccccc1" returns the recorded outcome of this test. inactive

Test call, this molecule: "Cc1ccc(Cl)c(-n2nnc(C(=O)Nc3ccccc3C#N)c2C)c1" active

What classification did "Cc1cc(NC(=O)c2[nH]nc3c2CCc2ccccc2-3)no1" end up with in this test? active
